Data provenance is the supplement of paper PMC12667976.

B1: library; numbered along this chain (parent)
chain: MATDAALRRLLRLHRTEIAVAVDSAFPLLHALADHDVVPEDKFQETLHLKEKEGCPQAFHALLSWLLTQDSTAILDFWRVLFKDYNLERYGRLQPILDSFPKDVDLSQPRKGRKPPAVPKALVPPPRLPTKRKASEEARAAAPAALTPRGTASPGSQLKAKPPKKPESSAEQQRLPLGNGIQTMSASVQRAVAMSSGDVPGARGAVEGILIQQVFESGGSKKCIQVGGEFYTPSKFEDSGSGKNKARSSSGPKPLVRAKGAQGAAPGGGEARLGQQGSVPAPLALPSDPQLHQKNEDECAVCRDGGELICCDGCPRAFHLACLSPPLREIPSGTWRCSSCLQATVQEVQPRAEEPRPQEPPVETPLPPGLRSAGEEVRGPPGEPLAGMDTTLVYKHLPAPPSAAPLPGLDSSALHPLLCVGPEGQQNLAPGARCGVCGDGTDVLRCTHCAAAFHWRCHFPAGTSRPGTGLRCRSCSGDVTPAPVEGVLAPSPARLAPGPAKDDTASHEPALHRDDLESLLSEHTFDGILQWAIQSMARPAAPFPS

# Variants of: B1
# methodNotes: AIRE transcriptional activation functional score (insulin promoter-GFP; nonsense median 0, synonymous median 1) (normalised score); higher = higher AIRE activity (more reporter activation)
# cond: with insulin promoter-GFP reporter in HEK293
Let's look at some variants and their measured AIRE transcriptional activation functional score.
Lab note: record just the number, no unit beside it.

# count of solved cases: 3
A510S ... 0.921
C449P ... 0.244
Q212T ... 0.447

Measured AIRE transcriptional activation functional score, A317R : 0.922

Measured AIRE transcriptional activation functional score, S248F : 1.09

Measured AIRE transcriptional activation functional score, P361N : 0.778

Measured AIRE transcriptional activation functional score, R113N : 1.68

Measured AIRE transcriptional activation functional score, P381D : 0.696

Measured AIRE transcriptional activation functional score, D389L : 0.218

Measured AIRE transcriptional activation functional score, P143N : 1.32

Measured AIRE transcriptional activation functional score, M388G : 0.832

Measured AIRE transcriptional activation functional score, D76R : 0.463
